Where do these numbers come from? They come from patent US11702422B2.

target desc: IL-17A(FLAG-Tagged): IL-17RA(His-Tagged) (Homo sapiens, UniProt Q16552, K93Q)
Sequence (Q16552 with tags, fused parts or gaps K93Q): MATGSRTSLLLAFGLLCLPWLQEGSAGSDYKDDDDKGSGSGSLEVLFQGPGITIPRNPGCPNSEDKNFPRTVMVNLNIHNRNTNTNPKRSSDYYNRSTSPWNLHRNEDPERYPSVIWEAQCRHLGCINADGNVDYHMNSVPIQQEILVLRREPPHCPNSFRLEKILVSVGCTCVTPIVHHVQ
assay notes: IL-17A(FLAG-Tagged): IL-17RA(His-Tagged) Binding Disruption Eu-HTRF Assay
details: IL-17A/IL-17RA binding disruption, simple average if tested more than once
quantity kind: pIC50
One number for each entry, as −log10 of the molar value.

Reference set (2 entries):
>  <molecule>
[2H]C([2H])([2H])n1nccc1C(=O)N[C@H](c1cn2ncc([C@H](NC(=O)CCC(F)F)C3CC3)cc2n1)C1CCC(F)(F)CC1

>  <pIC50>
6.51

$$$$
>  <molecule>
Cc1nonc1C(=O)N[C@H](c1cn2ncc([C@H](NC(=O)[C@@]34C[C@@H](F)[C@@H]3C4)C3CC3)cc2n1)C1CCC(F)(F)CC1 (relative stereo)

>  <pIC50>
5.07

$$$$

For the next question, use this molecule.
For the molecule shown here, `O=C(CC1CC(F)(F)C1)N[C@@H](c1cnn2cc([C@@H](NC(=O)c3nonc3COC(F)F)C3CCC(F)(F)CC3)nc2c1)C1CC1` , give the reported pIC50.
7.46

====

Task for the reader: assign each of the following compounds its reported IC50.
Test system: IL-17A-induced G-CSF production in human normal keratinocyte (NHK)
assay notes: NHK Assay: IL-17A-induced G-CSF production in human normal keratinocytes
Format: cell-based
details: adult normal human keratinocytes, IL-17A 5 ng/mL, 24 h, simple average if tested more than once

Reference set (4 entries):
>  <compound>
CC(C)n1nccc1C(=O)N[C@H](c1cn2ncc(C(NC(=O)CC3(C(F)(F)F)CC3)C3(C#N)CC3)cc2n1)C1CCC(F)(F)CC1 (single isomer, unassigned) [Example 434]

>  <IC50>
> 20000 nM

$$$$
>  <compound>
Cc1nonc1C(=O)N[C@H](c1cn2ncc(C(NC(=O)CC3CC(F)(F)C3)C3CCC3)cc2n1)C1CCC(F)(F)CC1 (single isomer, unassigned) [Example 494]

>  <IC50>
> 20000 nM

$$$$
>  <compound>
CC(C)n1nccc1C(=O)N[C@H](c1cn2ncc(C(NC(=O)CC3CC(F)(F)C3)C(F)F)cc2n1)C1CCC(F)(F)CC1 (single isomer, unassigned) [Example 420]

>  <IC50>
4100 nM

$$$$
>  <compound>
Cc1nonc1C(=O)N[C@H](c1cn2ncc(C(C)NC(=O)CCC(F)(F)F)cc2n1)C1CCC(F)(F)CC1 (single isomer, unassigned) [Example 510]

>  <IC50>
440 nM

$$$$

For the compound shown here, CC(CC(=O)N[C@@H](c1cnn2cc([C@@H](NC(=O)c3nonc3C3CC3)C3CCC(F)(F)CC3)nc2c1)C1CC1)C(F)(F)F (single isomer, unassigned) [Example 301] , give the reported IC50.
56 nM

====

target desc: IL-17A(FLAG-Tagged): IL-17RA(His-Tagged) (Homo sapiens, UniProt Q16552, K93Q)
assay notes: IL-17A(FLAG-Tagged): IL-17RA(His-Tagged) Binding Disruption Eu-HTRF Assay
details: IL-17A/IL-17RA binding disruption, simple average if tested more than once
quantity kind: IC50

// each compound listed below needs its IC50
1. COCC(NC(=O)CC1CC(F)(F)C1)c1cnn2cc([C@H](COC(C)(C)C(F)(F)F)NC(=O)c3ccnn3C(C)C)nc2c1 (single isomer, unassigned) [Example 539]
2. O=C(CCC(F)(F)F)N[C@@H](c1cnn2cc([C@@H](NC(=O)c3cncc(C(F)(F)F)c3)C3CCC(F)(F)CC3)nc2c1)C1CC1 [Example 178]
3. CC(C)n1nccc1C(=O)N[C@H](c1cn2ncc([C@H](NC(=O)CCC3CC3(F)F)C3CC3)cc2n1)C1CCC(F)(F)CC1 (single isomer, unassigned) [Example 270]
4. Cc1nonc1C(=O)N[C@H](c1cn2ncc([C@H](NC(=O)CO[C@H](C)C(F)(F)F)C3CC3)cc2n1)C1CCC(F)(F)CC1 [Example 357]
5. CCC(F)(F)CC(=O)N[C@@H](c1cnn2cc([C@@H](NC(=O)c3nonc3C)C3CCC(F)(F)CC3)nc2c1)C1CC1 [Example 338]
6. CC(=O)N(C)CCn1ncc(C(=O)N[C@H](c2cn3ncc([C@H](NC(=O)CCC(F)(F)F)C4CC4)cc3n2)C2CCC(F)(F)CC2)n1 [Example 114]

["130 nM", "67 nM", "150 nM", "950 nM", "360 nM", "2100 nM"]
